Data origin: paper PMC6152701

test: Aqueous solubility by UV spectrophotometry; assay type: physicochemical; conditions: 25 °C, water, thermodynamic from solid
parameter measured: solubility at 1 h (µg/mL)
Numbers only, in µg/mL.

Query :: Supply measured solubility at 1 h of O=c1cc(-c2ccc(O)cc2)oc2c(S(=O)(=O)O)c(O)c(O)c(O)c12 in your reply.
Result :: 1950

###

assay: DPPH-radical scavenging ability assay; format: biochemical; details: DPPH 80 μmol/L in DMSO, 30 min in the dark
parameter measured: IC50 (µM)
One number for each entry, in µM.

Please supply IC50 for each of the following items, keeping them in order.
1. O=C(O)[C@H]1O[C@@H](Oc2cc3oc(-c4ccc(O)cc4)cc(=O)c3c(O)c2O)[C@H](O)[C@@H](O)[C@@H]1O [Scutellarin (1), 4′,5,6-trihydroxyflavone-7-glucuronide]
2. O=c1cc(-c2ccc(O)cc2)oc2cc(O)c(O)c(O)c12
3. O=c1cc(-c2ccc(O)cc2)oc2c(S(=O)(=O)O)c(O)c(O)c(O)c12

Result ::
1. 17.9
2. 16.1
3. 16.8
